For each record, write down the corresponding pIC50.
# target.entity: hNeil1 (Homo sapiens, UniProt Q96FI4)
# Sequence (Q96FI4 whole entry): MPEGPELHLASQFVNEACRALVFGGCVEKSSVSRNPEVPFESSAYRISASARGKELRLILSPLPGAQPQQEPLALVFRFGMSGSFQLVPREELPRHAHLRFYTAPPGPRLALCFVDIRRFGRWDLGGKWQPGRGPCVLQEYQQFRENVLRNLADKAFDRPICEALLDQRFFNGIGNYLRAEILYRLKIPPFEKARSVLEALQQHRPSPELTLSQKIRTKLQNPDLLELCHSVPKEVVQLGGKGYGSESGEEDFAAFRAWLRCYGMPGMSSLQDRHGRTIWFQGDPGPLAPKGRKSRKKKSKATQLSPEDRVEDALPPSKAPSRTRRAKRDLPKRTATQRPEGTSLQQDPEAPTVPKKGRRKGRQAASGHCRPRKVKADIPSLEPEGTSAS
# method.summary: hNeil1 DNA glycosylase/AP lyase activity assay on DHU:G 24-mer duplex
# Format: biochemical
# Design: Overproduction was performed as described above for full length hNeil1; 6His (C); made in house; host or cells: E. coli Rosetta2 (DE3)
# condition.set: catalytic activity at 37 °C; compound stock in DMSO; DHU:G 24-mer; read-out: IC50app^A (Fpg/Nei enzyme catalysis) hNEIL1
# Procedure: Figure 4 Comparative analysis of the effect of 2TX and TXn on Fpg/Nei DNA glycosylases. Enzyme activities were measured as described in the Figure 1 legend using 0.1 nM of a 5′-[^32P]-24-mer DNA duplex containing either an 8-oxoG opposite C for LlFpg or a […] (DHU) opposite G for hNeil1 and mvNei1. […]
Numbers only, as −log10 of the molar value.

Known results for compounds:
input.smiles	measurement.name	value.observed
O=c1[nH]c(=S)[nH]c2[nH]c(=S)[nH]c12	pIC50	4.72
O=c1[nH]c2[nH]c(=S)[nH]c(=S)c2[nH]1	pIC50	4.68

Proceeding to the next compound to report its pIC50.
[Q] Quick one: pIC50 of Nc1ncnc2[nH]c(S)nc12 ?
[A] 3.80
